- tested-system: T1, XCR1-SMALP (Homo sapiens, UniProt P46094)
- T1 sequence (P46094 1-333): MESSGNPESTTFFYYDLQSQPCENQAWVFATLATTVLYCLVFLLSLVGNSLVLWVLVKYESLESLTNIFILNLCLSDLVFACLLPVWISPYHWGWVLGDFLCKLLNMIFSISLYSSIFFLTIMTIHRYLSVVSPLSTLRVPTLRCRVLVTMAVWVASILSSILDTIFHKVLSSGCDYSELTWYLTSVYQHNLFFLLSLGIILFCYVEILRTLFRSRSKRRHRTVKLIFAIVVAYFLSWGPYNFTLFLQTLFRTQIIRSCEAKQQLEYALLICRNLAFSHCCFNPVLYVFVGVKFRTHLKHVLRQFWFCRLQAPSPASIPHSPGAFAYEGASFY
- assay-procedure: Yeast-display non-specific binding to irrelevant XCR1-SMALP
- run-parameters: 50 nM; fold change compared to LIBC523797-1(Fab), after background subtraction
measured-property: 50 nM XCR1 SMALP, relative binding fold change
Could you respond with only the numeric value?

Ask: Record request: 50 nM XCR1 SMALP, relative binding fold change value, item LIBC674200-1: further cognate affinity-matured variant (antibody, V domains shown) VH: QVQLQESGPGLVKPSQTLSLTCTVSGGSIRRGGDYWSWIRQHPGKGLEWIGHVYYTGQTAYNPNFRNRVRISVNTYKNQFSLKLSSVTAADTAVYYCARGYDVSGYSYYYYGMDVWGQGTTVTVSS VL: DIVMTQSPLSLPVTPGEPASISCRSSQSLLHRSGYNYLDWYLQKPGQSPQLLIYLGSNRASGVPGRFSGSGSGTDFTLKISRVEAEDVGVYYCMQSLQTPRTFGQGTKVEIKR
Result: 0.79

Taken from patent US20250277029A1.
